run-description: in vivo
measurement-conditions: rat, po, 10 mg/kg
endpoint-name: bioavailability
Answer as a quantity: numeral, then unit.

Enquiry: Which measured bioavailability value corresponds to Cc1c(CC2=NN(Cc3ccccc3)C(=O)CC2)c2cc(F)ccc2n1CC(=O)O ?
Return: 28%

---

run-description: in vivo
measurement-conditions: rat, iv, 2 mg/kg
Description: Half life in rat at 2 mg/kg, iv
endpoint-name: half-life (h)
Enter your answer as a number in h; do not include the unit.

Enquiry: Which measured half-life value corresponds to Cc1c(CC2=NN(Cc3ccccc3)C(=O)CC2)c2cc(F)ccc2n1CC(=O)O ?
Return: 4.3

---

run-description: in vitro
measurement-conditions: human, Caco-2, pH 6.2
Description: Apparent permeability in human Caco2 cells at pH 6.2/7.4
endpoint-name: Papp (×10⁻⁶ cm/s)
Enter your answer as a number in ×10⁻⁶ cm/s; do not include the unit.

# record-smiles, Papp / ×10⁻⁶ cm/s
data = [
    ("Cc1c(-c2ccc(=O)n(Cc3ccccc3)n2)c2cc(F)ccc2n1CC(=O)O", 0.5),
]

Enquiry: Which measured Papp value corresponds to Cc1c(Cc2ccc(=O)n(Cc3ccccc3)n2)c2cc(F)ccc2n1CC(=O)O ?
Return: 4.3

Enquiry: Which measured Papp value corresponds to Cc1c(-c2ccc(=O)n(Cc3ccc(F)cc3F)n2)c2cc(F)ccc2n1CC(=O)O ?
Return: 2.1
